Origin of measurements: patent US20230357447A1

Biological target: Anti-CD28 scFv (VH-linker 1-VL) (biotinylated for capture on neutravidin plates)
Sequence (scFv, as listed by the source): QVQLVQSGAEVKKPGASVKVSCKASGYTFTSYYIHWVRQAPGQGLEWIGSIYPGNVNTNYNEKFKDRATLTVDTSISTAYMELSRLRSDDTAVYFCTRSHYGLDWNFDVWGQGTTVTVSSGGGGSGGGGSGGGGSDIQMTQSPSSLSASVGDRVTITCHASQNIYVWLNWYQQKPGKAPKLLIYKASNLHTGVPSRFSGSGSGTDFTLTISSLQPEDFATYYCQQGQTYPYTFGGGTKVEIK
Test: phage ELISA, scFv captured on plate, competitor soluble CD28;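 note: crude clonal phage supernatants added to wells pre-incubated with soluble CD28 or with blocking buffer only as control, bound phage read out with HRP-linked anti-M13 antibody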
REPORTED_PROPERTY: Phage binding ELISA CD28 scFv signal in presence of CD28
Write the number on its own, no unit after it.

Enquiry: May I ask what Phage binding ELISA CD28 scFv signal in presence of CD28 has been recorded for MDWCPRAMWNHCFN [Phage-198] ?
Return: 0.426

Enquiry: Try MHWCPEYLWNECFA [Phage-148] next.
Return: 0.092

Enquiry: Try MDWCPRHLWDQCFA [Phage-161] next.
Return: 0.144
